# System: NCI-H292 lung cancer cells
# ASSAY_PROCEDURE: FDA drug screening, complete media vs cholesterol-free media with simvastatin (TABLE 2)
# Assay type: cell-based, human
# REPORTED_CONDITIONS: complete media minus cholesterol-free media + simvastatin; >0 enhanced anti-cancer activity, about 0 neutral, <0 antagonist
# reported Difference; entries follow
Please give the numeric answer without any surrounding text.

Worked examples, 5 molecules total:
- Cc1ccccc1OCC(O)CO (stereo not shown): 0.31
- CCCN1C[C@H](C)[C@@H](O)[C@](C)(O)[C@@H](CC)OC(=O)[C@H](C)[C@@H](O[C@H]2C[C@@](C)(OC)[C@@H](O)[C@H](C)O2)[C@H](C)[C@@H](O[C@@H]2O[C@H](C)C[C@H](N(C)C)[C@H]2O)[C@](C)(O)C[C@H]1C: 0.36
- C=CC(=O)Nc1cc(Nc2nccc(-c3cn(C)c4ccccc34)n2)c(OC)cc1N(C)CCN(C)C: 0.05
- O=S(=O)(O)Oc1ccc(C(c2ccc(OS(=O)(=O)O)cc2)c2ccccn2)cc1 [Sodium Picosulfate]: 0.18
- CC(=O)Oc1c(C)c(C)c2c(c1C)CCC(C)(CCC[C@H](C)CCC[C@H](C)CCCC(C)C)O2 (stereo partly drawn) [D-α-Tocopherol acetate]: 0.11

Input: Name the recorded Difference of the item COc1cc2ncnc(Nc3ccc(F)c(Cl)c3)c2cc1NC(=O)/C=C/CN1CCCCC1 in your answer.
Output: 0.11

Input: For the molecule COC(=O)N[C@H](C(=O)N1CCC[C@H]1c1nc(-c2ccc(-c3ccc(-c4c[nH]c([C@@H]5CCCN5C(=O)[C@@H](NC(=O)OC)C(C)C)n4)cc3)cc2)c[nH]1)C(C)C , report Difference.
Output: 0.19

---

# Tested on: NCI-H292 lung cancer cells
# ASSAY_PROCEDURE: FDA drug screening, complete media vs cholesterol-free media with simvastatin (TABLE 2)
# Type: cell-based, human
Peptide text beside a SMILES is read from it.
METRIC: Difference
Enter a number only.

Some entries whose results are on file:
* O=C([O-])c1ccccc1O.[Na+] [Sodium Salicylate] | −0.24
* NCCCC[C@H](NC(=O)[C@@H]1CCCN1C(=O)[C@@H]1CSSC[C@H](N)C(=O)N[C@@H](Cc2ccccc2)C(=O)N[C@@H](Cc2ccccc2)C(=O)N[C@@H](CCC(N)=O)C(=O)N[C@@H](CC(N)=O)C(=O)N1)C(=O)NCC(N)=O [Felypressin] (HELM PEPTIDE1{C.F.F.Q.N.C.P.K.G.[am]}$PEPTIDE1,PEPTIDE1,1:R3-6:R3$$$V2.0) | −0.11

Input: Please supply the value of reported Difference for the item Cl.Cl.NCCc1c[nH]cn1 [Histamine (dihydrochloride)]
Output: 0.00

---

# Test system: NCI-H292 lung cancer cells
# ASSAY_PROCEDURE: FDA drug screening, complete media vs cholesterol-free media without statin (TABLE 1)
# Format: cell-based, human
# REPORTED_CONDITIONS: Complete minus Cholesterol-free; >0 enhanced anti-cancer activity, about 0 neutral, <0 antagonist
Structures can show the parent of a compound that is named as a salt.
Reported Difference values for the following compounds.
Response field accepts a number only; no unit should be typed.

Below are worked cases with known answers.
* COc1c(C)c2c(c(O)c1C/C=C(\C)CCC(=O)OCCN1CCOCC1)C(=O)OC2 [Mycophenolate Mofetil] | −0.01
* CCOc1nc2cccc(C(=O)O)c2n1Cc1ccc(-c2ccccc2-c2nnn[nH]2)cc1 | 0.02
* NC(=O)c1ccn(-c2cnc(NC[C@]3(c4ncccc4F)C[C@H](F)C3)nc2)c1 | −0.25
* C=CC1=C(C(=O)O)N2C(=O)[C@@H](NC(=O)/C(=N\O)c3csc(N)n3)[C@H]2SC1 | −0.24
* COc1ccc2c(c1)N(C[C@H](C)CN(C)C)c1ccccc1S2 | 0.01
* O=c1c(-c2ccc(O)cc2)coc2c([C@@H]3O[C@H](CO)[C@@H](O)[C@H](O)[C@H]3O)c(O)ccc12 | −0.27

Input: Return the recorded Difference value; entry: CCN(CC)CCOC(=O)C(c1ccccc1)c1ccccc1 [Adiphenine (hydrochloride)]
Output: −0.20

Input: Given the compound CCCOc1ccc(S(=O)(=O)NCCC2CCCN2C)cc1-c1nc2c(CCC)nn(C)c2c(=O)[nH]1 (stereo not shown) , write its reported Difference.
Output: −0.28

Input: Assign Difference to the following record: Nc1ccc(/N=N/c2ccccc2)c(N)n1 [Phenazopyridine (hydrochloride)]
Output: −0.06

Input: Give Difference for COc1ccc2[n-]c([S+]([O-])Cc3ncc(C)c(OC)c3C)nc2c1.[Na+] (stereo not shown) [Omeprazole (sodium)]
Output: −0.07

Input: Please give measured Difference of the following entry: CCCc1nn(C)c2c(=O)[nH]c(-c3cc(S(=O)(=O)N4CCN(CCO)CC4)ccc3OCC)nc12
Output: −0.27

---

We begin with a simple list: items and their reported Cholesterol-free.
# System: NCI-H292 lung cancer cells
# ASSAY_PROCEDURE: FDA drug screening, complete media vs cholesterol-free media without statin (TABLE 1)
# Format: cell-based, human
# REPORTED_CONDITIONS: NCI-H292 cells, cholesterol-free media without statin, FDA drug library screen

Look over these answered cases.
• Cc1ncc(COP(=O)(O)O)c(C=O)c1O [Pyridoxal phosphate] = 1.045
• NCC(CC(=O)O)c1ccc(Cl)cc1 (stereo not drawn) [Baclofen] = 0.5541
• CC(C)(O/N=C(\C(=O)N[C@@H]1C(=O)N2C(C(=O)[O-])=C(C[n+]3ccccc3)CS[C@H]12)c1csc(N)n1)C(=O)O [Ceftazidime] = 0.9478
• CC(=O)Oc1cc2c(s1)CCN(C(C(=O)C1CC1)c1ccccc1F)C2 (stereo not drawn) [Prasugrel] = 1.483
• Cn1c(Cn2ccc(C(F)(F)F)c(Oc3cc(Cl)cc(C#N)c3)c2=O)n[nH]c1=O [Doravirine] = 0.8163
• O=C(CCCN1CCN(c2ccccn2)CC1)c1ccc(F)cc1 [Azaperone] = 0.9307

Input: In one line, give reported Cholesterol-free of the entry O=C(Nc1c(Cl)cncc1Cl)c1ccc(OC(F)F)c(OCC2CC2)c1 [Roflumilast] .
Output: 0.9495

Input: Tell me measured Cholesterol-free for CO/N=C(\C(=O)N[C@@H]1C(=O)N2C(C(=O)O)=CCS[C@H]12)c1csc(N)n1 [Ceftizoxime] please.
Output: 1.031

Input: Name the recorded Cholesterol-free of the compound listed here: Cc1ncc([N+](=O)[O-])n1CC(O)CN1CCOCC1 (stereo not drawn) [Morinidazole (R enantiomer)]
Output: 1.104

---

# Tested on: NCI-H292 lung cancer cells
# ASSAY_PROCEDURE: FDA drug screening, complete media vs cholesterol-free media with simvastatin (TABLE 2)
# Assay type: cell-based, human
# REPORTED_CONDITIONS: complete media vs cholesterol-free media + simvastatin (0.04 μM); […]
METRIC: Difference
Answer using only a numeral; do not append any unit.

Worked examples, 3 compounds total:
• Cc1ccc([C@@H]2O[C@H](CO)[C@@H](O)[C@H](O)[C@H]2O)cc1Cc1ccc(-c2ccc(F)cc2)s1.O [Canagliflozin (hemihydrate)] = −0.45
• Cc1cc(=O)n(-c2ccccc2)n1C [Antipyrine] = −0.13
• COP(=S)(OC)Oc1ccc([N+](=O)[O-])c(C)c1 = −0.16

Input: # return recorded Difference for entry Nc1ccc(C(=O)[O-])c(O)c1.O.O.[Na+] [Sodium 4-aminosalicylate (dihydrate)]
Output: −0.29

---

Known Cholesterol-free media + simvastatin (0.04 μM) of a selection of compounds
# Test system: NCI-H292 lung cancer cells
# ASSAY_PROCEDURE: FDA drug screening, complete media vs cholesterol-free media with simvastatin (TABLE 2)
# Type: cell-based, human
# REPORTED_CONDITIONS: NCI-H292 cells, FDA drug library screen, cholesterol-free media with simvastatin 0.04 μM
// response body must contain only the number

// worked examples, Cholesterol-free media + simvastatin (0.04 μM) included
- C[Se]CC[C@H](N)C(=O)O [Selenomethionine]: 1.83
- Cc1ccc(NC(=O)c2ccc(CN3CCN(C)CC3)cc2)cc1Nc1nc(-c2cccnc2)cs1 [Masitinib]: 0.9334

Input: Let me know recorded Cholesterol-free media + simvastatin (0.04 μM) for NNC(=O)c1ccncc1 [Isoniazid] , thanks.
Output: 1.455

Input: # return recorded Cholesterol-free media + simvastatin (0.04 μM) for entry OCc1cc(C(O)CNCCCCCCOCCCCc2ccccc2)ccc1O (centres unmarked) [Salmeterol (xinafoate)]
Output: 0.9341

Input: Indicate its recorded Cholesterol-free media + simvastatin (0.04 μM); the compound in question is CC12CCC(CC1=O)C2(C)C (centres unmarked) [Camphor]
Output: 1.13

---

# Tested on: NCI-H292 lung cancer cells
# ASSAY_PROCEDURE: FDA drug screening, complete media vs cholesterol-free media with simvastatin (TABLE 2)
# Assay type: cell-based, human
# REPORTED_CONDITIONS: NCI-H292 cells, FDA drug library screen, complete media
// reported Complete Media per item
Please state the value as a number alone, without comment.

* CO/N=C(\C(=O)N[C@@H]1C(=O)N2C(C(=O)[O-])=C(COC(N)=O)CS[C@H]12)c1ccco1.[Na+] [Cefuroxime (sodium)] | 1.035

# ---- query compound ----
Input: // fetch Complete Media given entry Cc1cc(-n2c(=O)[nH]c(=O)n(C)c2=O)ccc1Oc1ccc(SC(F)(F)F)cc1 [Toltrazuril]
Output: 0.8466

Origin of measurements: patent US20250144067A1
